- Procedure Text: Cmax in ICR mouse at 1 mg/kg, iv
- Type: ADME, organism-based
- Parameters: dose 1 mg/kg, route intravenous
- Study Conditions: in vivo
Metric Name: Cmax (ng/mL)

>>> measured_result("CS(=O)(=O)c1nn(Cc2nc3cc(Cl)ccc3n2CC2COC2)c2cnccc12")
1270

----------
- Procedure Text: Half life in rat at 1 mg/kg, iv
- Format: ADME, organism-based
- Study Conditions: in vivo
Metric Name: half-life (min)

>>> measured_result("CS(=O)(=O)CCCn1c(Cn2cc(S(C)(=O)=O)c3ccccc32)nc2cc(Cl)ccc21")
40.4

----------
- Procedure Text: Cmax in ICR mouse at 25 mg/kg, po
- Type: ADME, organism-based
- Parameters: dose 25 mg/kg, route oral
- Study Conditions: in vivo
Metric Name: Cmax

>>> measured_result("CS(=O)(=O)c1nn(Cc2nc3cc(Cl)ccc3n2CCCCO)c2cnccc12")
"425 ng/mL"
